Reported Tmax values follow for various compounds
test: in vivo; details: male, Sprague-Dawley, rat, po
Answer in h, number only, no unit symbol.

- COMPOUND: "Cc1cc(O)c2c(c1)C(=O)c1cccc(O)c1C2=O [P13, Chrysophanol]"
  Tmax [h]: 1.67
- COMPOUND: "CCCCOC(=O)c1ccccc1C(=O)OCCCC [P49, Dibutyl phthalate]"
  Tmax [h]: 8.08

Which Tmax is listed for CCCCCCCCCCCCCCCC(=O)OC[C@@H](O)COP(=O)([O-])OCC[N+](C)(C)C [P50] ?
1

====

Reported half-life values follow for various compounds
test: Multi-compound pharmacokinetics of ZJTSD in rat serum, semi-quantitative UPLC-Q/TOF-MS (peak area ratio versus time, non-compartmental); details: male, Sprague-Dawley, rat, serum (hepatic portal vein blood), po, 1 mL/100 g body weight, t1/2, metabolites of ZJTSD in rat serum; mean±SD, n=3
Answer in min, number only, no unit symbol.

- COMPOUND: "CC1CCC2(C(=O)O)CCC3(C)C(=CCC4C5(C=O)CC(O)C(O)C(C)(C)C5CCC43C)C2C1(C)O (stereo not drawn)"
  half-life / min: 649

Which half-life is listed for O=C(CCc1ccc(O)cc1)c1ccc(O)cc1O ?
421

Which half-life is listed for Cc1cc(O)c2c(c1)C(=O)c1ccccc1C2=O ?
326

====

Reported MRT values follow for various molecules
assay: Multi-compound pharmacokinetics of ZJTSD in rat serum, semi-quantitative UPLC-Q/TOF-MS (peak area ratio versus time, non-compartmental); conditions: male, Sprague-Dawley, rat, serum (hepatic portal vein blood), po, 1 mL/100 g body weight
Answer in h, number only, no unit symbol.

- ITEM_SMILES: "O=C(O)CC(O)(CC(=O)O)C(=O)O"
  MRT, h: 9.56

Consider now this further molecule.
Which MRT is listed for CCCCCCCCCCCCCCCCCC(=O)OC[C@@H](O)COP(=O)([O-])OCC[N+](C)(C)C ?
9.91

====

assay: Multi-compound pharmacokinetics of ZJTSD in rat serum, semi-quantitative UPLC-Q/TOF-MS (peak area ratio versus time, non-compartmental); conditions: male, Sprague-Dawley, rat, serum (hepatic portal vein blood), po, 1 mL/100 g body weight
Reported Tmax values follow for various molecules
# output: number + unit

Worked cases, Tmax given:
- MOLECULE: "COc1cc2ccc(=O)oc2cc1O"
  MEASURED_RESULT: "0.5 h"
- MOLECULE: "Cc1cc(=O)c2c(CC(=O)O)cc(O)cc2o1"
  MEASURED_RESULT: "1.67 h"

Which Tmax is listed for Cc1cc(O)c2c(c1)C(=O)c1cc(O)cc(O)c1C2=O ?
2.83 h

Which Tmax is listed for O=C(O)c1ccc(O)cc1 [P41, p-Hydroxybenzoic acid] ?
2.75 h

Which Tmax is listed for O=C(O)CC(O)(CC(=O)O)C(=O)O ?
3.33 h

====

details: rat, in vivo, po
PROPERTY: elimination half-life (t1/2)

Worked cases, elimination half-life (t1/2) given:
- COMPOUND: "Oc1ccccc1O"
  PROPERTY: "elimination half-life (t1/2)"
  MEASURED_RESULT: "> 7.5 h"
- COMPOUND: "CC(=O)CCc1ccc(OS(=O)(=O)O)cc1"
  PROPERTY: "elimination half-life (t1/2)"
  MEASURED_RESULT: "less than 4 h"
- COMPOUND: "Cc1cc(O)c2c(c1)C(=O)c1cccc(O)c1C2=O"
  PROPERTY: "elimination half-life (t1/2)"
  MEASURED_RESULT: "> 7.5 h"
- COMPOUND: "C[N+](C)(C)CCOP(=O)([O-])OCC(O)COCCCCCCCCCCCCCCC=O (stereo not drawn)"
  PROPERTY: "elimination half-life (t1/2)"
  MEASURED_RESULT: "> 7.5 h"
- COMPOUND: "Cc1ccc2c(c1)C(=O)c1cc(OS(=O)(=O)O)ccc1C2=O"
  PROPERTY: "elimination half-life (t1/2)"
  MEASURED_RESULT: "less than 4 h"

Consider now this further compound.
Which elimination half-life (t1/2) is listed for O=C(O)c1cc2c(cc1O)C(=O)c1ccccc1C2=O ?
less than 4 h

====

Reported half-life values follow for various compounds
assay: Multi-compound pharmacokinetics of ZJTSD in rat serum, semi-quantitative UPLC-Q/TOF-MS (peak area ratio versus time, non-compartmental); conditions: male, Sprague-Dawley, rat, serum (hepatic portal vein blood), po, 1 mL/100 g body weight, t1/2, prototype compounds of ZJTSD absorbed into rat serum; mean±SD, n=3
Answer in h, number only, no unit symbol.

Which half-life is listed for O=C1c2cccc(O)c2C(=O)c2c(O)cc(CO)cc21 [P17, Aloe-emodin] ?
1.73

Which half-life is listed for N[C@@H](Cc1c[nH]cn1)C(=O)O [P24, Histidine] ?
21.1

====

set-up: unit not given beside the values; details: rat, in vivo
Note to self: class = bucket of Cmax, per lowest: < 0.8; middle: ≥ 0.8 and < 20000; highest: ≥ 20000

Field: example entries. Status: answers known.
- MOLECULE: "CCCCCCCCCCCCCCCC(=O)OC[C@@H](O)COP(=O)([O-])OCC[N+](C)(C)C [P50]"
  CLASS: "middle"
- MOLECULE: "CCCCOC(=O)c1ccccc1C(=O)OCCCC [P49, Dibutyl phthalate]"
  CLASS: "middle"
- MOLECULE: "CC(CO)C1=C(O)c2ccc3c(c2C(=O)C1=O)CCCC3(C)C (stereo not drawn) [P31, Tanshinone V]"
  CLASS: "middle"
- MOLECULE: "Cc1cc(O)c2c(c1)C(=O)c1cccc(O)c1C2=O [P13, Chrysophanol]"
  CLASS: "highest"
- MOLECULE: "COc1ccc2c(c1OC)O[C@H]1c3ccc(O)cc3OC[C@@H]21 [P8, Methylnissolin]"
  CLASS: "lowest"
- MOLECULE: "Cc1cc(O)c2c(c1)C(=O)c1cc(C(=O)O)cc(O)c1C2=O [P19, 6-Methyl-rhein]"
  CLASS: "highest"
- MOLECULE: "Cc1cc(O[C@@H]2O[C@H](CO)[C@@H](O)[C@H](O)[C@H]2O)cc2oc(CC(C)O)cc(=O)c12 (stereo partly drawn) [P7]"
  CLASS: "lowest"

Okay, next one:
Bin this entry: COc1cccc2c1C(=O)c1c(O)cc(C)cc1C2=O [P20, 8-Methyl chrysophanol]
middle

====

Reported log10 of half-life values follow for various compounds
assay: Multi-compound pharmacokinetics of ZJTSD in rat serum, semi-quantitative UPLC-Q/TOF-MS (peak area ratio versus time, non-compartmental); conditions: male, Sprague-Dawley, rat, serum (hepatic portal vein blood), po, 1 mL/100 g body weight, t1/2, prototype compounds of ZJTSD absorbed into rat serum; mean±SD, n=3
In our notation, the value equals log10 of half-life in h.

- COMPOUND: "CCCCCCCCCCCCCCCCOC[C@@H](O)COP(=O)([O-])OCC[N+](C)(C)C [P44]"
  PROPERTY: "log10 of half-life"
  MEASURED_RESULT: 1.52
- COMPOUND: "CC(=O)Cc1cc(O)cc2oc(C)cc(=O)c12 [P5, 2-Methyl-5-acetonyl-7-hydroxychromone]"
  PROPERTY: "log10 of half-life"
  MEASURED_RESULT: 0.49
- COMPOUND: "O=C(O)[C@@H]1CCCN1 [P26, Proline]"
  PROPERTY: "log10 of half-life"
  MEASURED_RESULT: 1.67
- COMPOUND: "COc1c(O)c(C)cc2c1C(=O)c1ccc(O)cc1C2=O [P21]"
  PROPERTY: "log10 of half-life"
  MEASURED_RESULT: 0.54

Which log10 of half-life is listed for O=C(O)CC(O)(CC(=O)O)C(=O)O [P40, Citric acid] ?
1.39

====

conditions: rat, in vivo
PROPERTY: Tmax
Give the figure by itself; no unit, no explanation.

- COMPOUND: "COc1cc2c(=O)c(-c3ccc(O)cc3)coc2cc1O[C@@H]1O[C@H](CO)[C@@H](O)[C@H](O)[C@H]1O"
  Tmax: 0.92
- COMPOUND: "Cc1cc(O[C@@H]2O[C@H](CO)[C@@H](O)[C@H](O)[C@H]2O)cc2oc(CC(C)O)cc(=O)c12 (some centres unmarked)"
  Tmax: 0.92
- COMPOUND: "CC(CO)C1=C(O)c2ccc3c(c2C(=O)C1=O)CCCC3(C)C (centres unmarked)"
  Tmax: 5.33
- COMPOUND: "COc1ccc2c(c1OC)O[C@H]1c3ccc(O)cc3OC[C@@H]21"
  Tmax: 0.42

Consider now this further compound.
Which Tmax is listed for COc1cccc2c1C(=O)c1c(O)cc(C)cc1C2=O ?
0.67

====

Reported half-life values follow for various compounds
assay: Multi-compound pharmacokinetics of ZJTSD in rat serum, semi-quantitative UPLC-Q/TOF-MS (peak area ratio versus time, non-compartmental); conditions: male, Sprague-Dawley, rat, serum (hepatic portal vein blood), po, 1 mL/100 g body weight, t1/2, prototype compounds of ZJTSD absorbed into rat serum; mean±SD, n=3
Answer in h, number only, no unit symbol.

Which half-life is listed for CCCCCCCCCCCCCCCCCC(=O)OC[C@@H](O)COP(=O)([O-])OCC[N+](C)(C)C [P45] ?
21.9

Which half-life is listed for O=C(O)/C=C/c1ccccc1 [P36, Cinnamic acid] ?
25.8

Which half-life is listed for O=C(O)C=Cc1ccc(O)cc1 [P37, p-Coumaric acid] ?
3.23
